Entries below carry reported IC50 on human 11β-HSD1 (Homo sapiens, UniProt P28845).
Sequence (P28845 whole entry): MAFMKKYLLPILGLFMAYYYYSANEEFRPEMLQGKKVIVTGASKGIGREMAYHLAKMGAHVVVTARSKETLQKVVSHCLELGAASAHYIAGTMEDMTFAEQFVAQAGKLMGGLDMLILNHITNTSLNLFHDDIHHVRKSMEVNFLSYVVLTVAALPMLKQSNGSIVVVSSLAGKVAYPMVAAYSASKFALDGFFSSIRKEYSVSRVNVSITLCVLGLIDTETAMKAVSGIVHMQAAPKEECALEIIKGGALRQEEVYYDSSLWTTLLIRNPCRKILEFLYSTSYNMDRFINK

C[C@@H](c1ccc(Br)cc1)N1CCC(c2ccc(F)cc2)OC1=O (mixture of isomers); < 100 nM
COc1ccc([C@H](C)N2CCC(c3ccc(F)cc3)CC2=O)cc1 (stereo partly shown); < 100 nM
O=C1O[C@@H](c2ccccc2)CCN1c1cccc2ccccc12; 100 to 1000 nM

Read the next record carefully.
Lab note: need IC50 with human 11β-HSD1 (Homo sapiens, UniProt P28845) for entry O=C1OC(c2ccccc2Cl)CCN1c1cccc(Br)c1 (stereo not shown) , please look it up.
100 to 1000 nM
